Kindly supply the reported solubility kinetic values for the records listed here.
# Test protocol: Kinetic solubility of compound in PBS at pH 7.4
# Assay type: physicochemical
# Measurement setup: read-out: Kinetic_solubility

Exercise: Determine from records and report solubility kinetic for CN(C)S(=O)(=O)c1ccc2c(c1)/C(=C1/Nc3ccccc3C1(C)O)C(=O)N2 (stereo not drawn)
Key: > 40 µg/mL

Exercise: Respond only with solubility kinetic recorded for C=CCC1(O)/C(=C2/C(=O)Nc3ccc(S(=O)(=O)N(C)CCN(C)C)cc32)Nc2ccccc21 (stereo not drawn)
Key: > 40 µg/mL

Exercise: Please report the measured solubility kinetic for CN(C)CCN(C)S(=O)(=O)c1ccc2c(c1)/C(=C1/Nc3ccccc3C1(C)O)C(=O)N2 (stereo not drawn)
Key: > 40 µg/mL
